- TARGET_ENTITY: Human PD-L1/PD-1 (Homo sapiens)
- Construct: made in house; host or cells: HEK293T
- Sequence (Q9NZQ7 with tags, fused parts or gaps): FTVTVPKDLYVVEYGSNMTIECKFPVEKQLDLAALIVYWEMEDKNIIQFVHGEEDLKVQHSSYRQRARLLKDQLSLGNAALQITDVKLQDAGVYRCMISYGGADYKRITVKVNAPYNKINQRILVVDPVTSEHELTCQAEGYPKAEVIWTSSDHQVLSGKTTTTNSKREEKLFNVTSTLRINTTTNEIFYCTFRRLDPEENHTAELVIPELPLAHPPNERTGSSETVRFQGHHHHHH
- PROCEDURE_DETAILS: HTRF PD-1-Ig/PD-L1-His binding assay (human PD-L1)
- CONDITION: cluster symbol; read-out: HTRF IC50 cluster
- Excerpt: The ability of the macrocyclic peptides of the present disclosure to bind to PD-L1 was investigated using a PD-1/PD-L1 Homogenous Time-Resolved Fluorescence (HTRF) binding assay. Homogenous Time-Resolved Fluorescence (HTRF) Assays of Binding of Soluble PD-1 to Soluble PD-L1. […]
Positions of bridges follow the written chain, without caps; N, C: chain ends. Non-standard residues stand in square brackets, D forms with d. Residues, ends and D or L forms follow the SMILES beside them. NMeF = CN[C@@H](Cc1ccccc1)C(=O)O; 4Pal = N[C@@H](Cc1ccncc1)C(=O)O; NMeNle = CCCC[C@H](NC)C(=O)O; Orn = NCCC[C@H](N)C(=O)O; Sar = CNCC(=O)O
QUANTITY: IC50

Sample CCCC[C@H]1C(=O)N(C)CC(=O)N[C@@H](CC(N)=O)C(=O)N[C@@H](C(C)C)C(=O)N(C)[C@@H](Cc2ccccc2)C(=O)N[C@@H](Cc2ccc(O)cc2)C(=O)N(C)CC(=O)N[C@@H](Cc2c[nH]c3ccccc23)C(=O)N[C@@H](Cc2ccc(O)cc2)C(=O)N[C@@H](CCCN)C(=O)N[C@H](C(=O)NCC(N)=O)CSCC(=O)N[C@@H](Cc2ccccc2)C(=O)N[C@@H](Cc2ccncc2)C(=O)N1C [Example 3610] ({CH2CO}-F[4Pal][NMeNle][Sar]NV[NMeF]Y[Sar]WY[Orn]CG-NH2; thioether N-13) ; IC50 observed: 6.76 to 30.3 nM

----------
- TARGET_ENTITY: LK35.2-hPD-L1 cells / PE-labeled PD-1-Ig (Homo sapiens, UniProt Q9NZQ7)
- Construct: expressed in transfected cells; host or cells: LK35.2 mouse B cell line
- Sequence (Q9NZQ7 19-290): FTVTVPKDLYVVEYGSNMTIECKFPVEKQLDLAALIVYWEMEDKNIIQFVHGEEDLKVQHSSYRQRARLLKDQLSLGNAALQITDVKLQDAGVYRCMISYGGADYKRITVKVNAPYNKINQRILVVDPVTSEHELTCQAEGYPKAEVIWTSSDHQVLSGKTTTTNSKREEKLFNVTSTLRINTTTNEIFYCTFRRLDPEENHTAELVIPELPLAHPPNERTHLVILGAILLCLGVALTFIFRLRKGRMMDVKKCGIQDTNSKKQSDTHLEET
- PROCEDURE_DETAILS: LK35.2-hPD-L1 cell binding high-content screening assay
- Format: cell-based
- CONDITION: cell binding assay, cell line not given; cluster symbol; read-out: CBA IC50 cluster
Positions of bridges follow the written chain, without caps; N, C: chain ends. Non-standard residues stand in square brackets, D forms with d. Residues, ends and D or L forms follow the SMILES beside them. ξ: configuration not given here. Bta = N[C@@H](Cc1csc2ccccc12)C(=O)O; NMeNle = CCCC[C@H](NC)C(=O)O; NMeA = CN[C@@H](C)C(=O)O; Nle = CCCC[C@H](N)C(=O)O; ξC = NC(CS)C(=O)O
# IC50 annotations

CCCC[C@H]1C(=O)N(C)[C@@H](COCC)C(=O)N[C@@H](CCCNC(=N)N)C(=O)NC(C(=O)NCC(N)=O)CSCC(=O)N[C@@H](Cc2ccc(O)cc2)C(=O)N(C)[C@@H](C)C(=O)N[C@@H](CC(N)=O)C(=O)N2CCC[C@H]2C(=O)N[C@@H](Cc2cnc[nH]2)C(=O)N[C@@H](CC(C)C)C(=O)N2C[C@H](O)C[C@H]2C(=O)N[C@@H](Cc2c[nH]c3ccccc23)C(=O)N[C@@H](CO)C(=O)N[C@@H](Cc2c[nH]c3ccccc23)C(=O)N1C (some centres unmarked) : 0.158 to 4.71 nM

Sample CCCC[C@@H]1NC(=O)[C@H](Cc2cnc[nH]2)NC(=O)[C@@H]2CCCN2C(=O)[C@H](CC(N)=O)NC(=O)[C@H](C)N(C)C(=O)[C@H](Cc2ccc(O)cc2)NC(=O)CSCC(C(=O)NCC(N)=O)NC(=O)[C@H](CCCNC(=N)N)NC(=O)[C@H](CCCC)N(C)C(=O)[C@H](CCCC)N(C)C(=O)[C@H](Cc2csc3ccccc23)NC(=O)[C@H](CO)NC(=O)[C@H](Cc2c[nH]c3ccccc23)NC(=O)[C@H]2CCCN2C1=O (some centres unmarked) [Example 9002] ({CH2CO}-Y[NMeA]NPH[Nle][dP]WS[Bta][NMeNle][NMeNle]R[ξC]G-NH2; thioether N-14) ; IC50 observed: 4.78 to 72.9 nM

----------
# IC50 annotations
- TARGET_ENTITY: LK35.2-hPD-L1 cells / PE-labeled PD-1-Ig (Homo sapiens, UniProt Q9NZQ7)
- Construct: expressed in transfected cells; host or cells: LK35.2 mouse B cell line
- PROCEDURE_DETAILS: LK35.2-hPD-L1 cell binding high-content screening assay
- Format: cell-based
- CONDITION: cluster symbol; cell line of CBA not given (LK35.2-hPD-L1 or 293T-hPD-L1); read-out: CBA IC50 cluster
Positions of bridges follow the written chain, without caps; N, C: chain ends. Non-standard residues stand in square brackets, D forms with d. Residues, ends and D or L forms follow the SMILES beside them. Phe(4-CH2NH2) = NCc1ccc(C[C@H](N)C(=O)O)cc1; Phe(3-Cl) = N[C@@H](Cc1cccc(Cl)c1)C(=O)O; Phe(3-F) = N[C@@H](Cc1cccc(F)c1)C(=O)O; Phe(2-Me) = Cc1ccccc1C[C@H](N)C(=O)O; Bta = N[C@@H](Cc1csc2ccccc12)C(=O)O; cisHyp = O=C(O)[C@@H]1C[C@H](O)CN1; NMeF = CN[C@@H](Cc1ccccc1)C(=O)O; NMeNle = CCCC[C@H](NC)C(=O)O; NMeA = CN[C@@H](C)C(=O)O; Orn = NCCC[C@H](N)C(=O)O; Sar = CNCC(=O)O

Sample CCCC[C@H]1C(=O)N(C)CC(=O)N[C@@H](CC(=O)O)C(=O)N[C@@H](C(C)C)C(=O)N(C)[C@@H](Cc2ccccc2)C(=O)N[C@@H](Cc2ccc(CN)cc2)C(=O)N(C)CC(=O)N[C@@H](Cc2csc3ccccc23)C(=O)N[C@@H](Cc2ccc(O)cc2)C(=O)N[C@@H](CC(C)C)C(=O)N[C@H](C(=O)NCC(N)=O)CSCC(=O)N[C@@H](Cc2cccc(Cl)c2)C(=O)N(C)[C@@H](Cc2ccccc2)C(=O)N1C [Example 3118] ({CH2CO}-[Phe(3-Cl)][NMeF][NMeNle][Sar]DV[NMeF][Phe(4-CH2NH2)][Sar][Bta]YLCG-NH2; thioether N-13) ; IC50 observed: 4.78 to 72.9 nM

Sample CCCC[C@H]1C(=O)N(C)[C@@H](CCCC)C(=O)N[C@@H](CCCNC(=N)N)C(=O)N[C@H](C(=O)NCC(N)=O)CSCC(=O)N[C@@H](Cc2ccc(O)cc2)C(=O)N(C)[C@@H](C)C(=O)N[C@@H](CCCN)C(=O)N2CCC[C@H]2C(=O)N[C@@H](C)C(=O)N[C@@H](CCC(=O)O)C(=O)N2C[C@@H](O)C[C@H]2C(=O)N[C@@H](Cc2c[nH]c3ccccc23)C(=O)N[C@@H](CO)C(=O)N[C@@H](Cc2c[nH]c3ccccc23)C(=O)N1C [Example 1147] ({CH2CO}-Y[NMeA][Orn]PAE[cisHyp]WSW[NMeNle][NMeNle]RCG-NH2; thioether N-14) ; IC50 observed: 4.78 to 72.9 nM

Sample CCCC[C@H]1C(=O)N(C)CC(=O)N[C@@H](CC(=O)O)C(=O)N[C@@H](C(C)C)C(=O)N(C)[C@@H](Cc2ccccc2)C(=O)N[C@@H](Cc2ccc(O)cc2)C(=O)N(C)CC(=O)N[C@@H](Cc2c[nH]c3ccccc23)C(=O)N[C@@H](Cc2ccc(O)cc2)C(=O)N[C@@H](CC(C)C)C(=O)N[C@H](C(=O)NCC(N)=O)CSCC(=O)N[C@@H](Cc2ccccc2C)C(=O)N(C)[C@@H](Cc2ccccc2)C(=O)N1C [Example 3105] ({CH2CO}-[Phe(2-Me)][NMeF][NMeNle][Sar]DV[NMeF]Y[Sar]WYLCG-NH2; thioether N-13) ; IC50 observed: > 74.3 nM

Sample CCCC[C@H]1C(=O)N(C)CC(=O)N[C@@H](CC(=O)O)C(=O)N[C@@H](C(C)C)C(=O)N(C)[C@@H](Cc2ccccc2)C(=O)N[C@@H](Cc2ccc(O)cc2)C(=O)N(C)CC(=O)N[C@@H](Cc2c[nH]c3ccccc23)C(=O)N[C@@H](Cc2ccc(O)cc2)C(=O)N[C@@H](CC(C)C)C(=O)N[C@H](C(=O)NCC(N)=O)CSCC(=O)N[C@@H](Cc2cccc(F)c2)C(=O)N(C)[C@@H](Cc2ccccc2)C(=O)N1C [Example 3125] ({CH2CO}-[Phe(3-F)][NMeF][NMeNle][Sar]DV[NMeF]Y[Sar]WYLCG-NH2; thioether N-13) ; IC50 observed: 0.158 to 4.71 nM

----------
- TARGET_ENTITY: LK35.2-hPD-L1 cells / PE-labeled PD-1-Ig (Homo sapiens, UniProt Q9NZQ7)
- Construct: expressed in transfected cells; host or cells: LK35.2 mouse B cell line
- PROCEDURE_DETAILS: LK35.2-hPD-L1 cell binding high-content screening assay
- Type: cell-based
- CONDITION: cell binding assay, cell line not given; cluster symbol; read-out: CBA IC50 cluster
- Experimental: LK35.2-hPD-L1 Cell Binding High-Content Screening Assay. Phycoerythrin (PE) was covalently linked to the Ig epitope tag of human PD-1-Ig and fluorescently-labeled PD-1-Ig was used for binding studies with a mouse B cell line (LK35.2) stably over-expressing human PD-L1 (LK35.2-hPD-L1). Briefly, 3×10^3 LK35.2-hPD-L1 cells were seeded into 384 well plates in 20 ul of RPMI supplemented with 10% fetal calf serum and cultured overnight. […]
Starred links: 1 amine or outer side, 2 acyl side, 3 side chain; linkers in the order of their positions; H or OH if unused. Positions of bridges follow the written chain, without caps; N, C: chain ends. Non-standard residues stand in square brackets, D forms with d. Residues, ends and D or L forms follow the SMILES beside them. ξ: configuration not given here. X1 = C[C@@H]1C[C@H](C(=O)[*:2])N([*:1])C1; NMeF = CN[C@@H](Cc1ccccc1)C(=O)O; NMeNle = CCCC[C@H](NC)C(=O)O; NMeM = CN[C@@H](CCSC)C(=O)O; NMeA = CN[C@@H](C)C(=O)O; Dap = NC[C@H](N)C(=O)O; ξC = NC(CS)C(=O)O; Sar = CNCC(=O)O
QUANTITY: IC50

CCCC[C@H]1C(=O)N2C[C@H](C)C[C@@H]2C(=O)N[C@@H](CC(=O)O)C(=O)N[C@@H](C(C)C)C(=O)N(C)[C@@H](Cc2ccccc2)C(=O)N[C@@H](Cc2ccc(O)cc2)C(=O)N(C)CC(=O)N[C@@H](Cc2c[nH]c3ccccc23)C(=O)N[C@@H](Cc2ccc(O)cc2)C(=O)N[C@@H](CC(C)C)C(=O)N[C@H](C(=O)NCC(N)=O)CSCC(=O)N[C@@H](Cc2ccccc2)C(=O)N(C)[C@@H](Cc2ccccc2)C(=O)N1C [Example 3580] ({CH2CO}-F[NMeF][NMeNle][X1]DV[NMeF]Y[Sar]WYLCG-NH2; thioether N-13) : 0.158 to 4.71 nM

API: the following record is the query input.
Sample CCCC[C@H]1C(=O)N[C@@H](CCCNC(=N)N)C(=O)NC(C(=O)NCC(N)=O)CSCC(=O)N[C@@H](Cc2ccc(O)cc2)C(=O)N(C)[C@@H](C)C(=O)N[C@@H](CC(N)=O)C(=O)N2CCC[C@H]2C(=O)N[C@@H](CN)C(=O)N[C@@H](CC(C)C)C(=O)N2CCC[C@H]2C(=O)N[C@@H](Cc2c[nH]c3ccccc23)C(=O)N[C@@H](CO)C(=O)N[C@@H](Cc2c[nH]c3ccccc23)C(=O)N(C)[C@@H](CCSC)C(=O)N1C (some centres unmarked) [Example 9089] ({CH2CO}-Y[NMeA]NP[Dap]LPWSW[NMeM][NMeNle]R[ξC]G-NH2; thioether N-14) ; IC50 observed: 0.158 to 4.71 nM
